Kindly supply the reported pKd values for the records listed here.
biological target: nucleocapsid protein of SARS-CoV-2 (SARS-CoV-2, UniProt P0DTC9 1-419)
The quantity pKd is defined as the negative base-10 logarithm of the molar concentration.

Q: # get_value(readout='pKd', item= rabbit monoclonal antibody 3A7 against the SARS-CoV-2 nucleocapsid protein (antibody, V domains shown) VH: QEQLEESGGGLVQPEGSLTLTCTASGFSLSDSAYMCWVRQAPGKGLEWIACIDAGVSGSTYYASWVNGRFTISKTSSTTVTLQMTSLTVADTATYFCARDFLYTPNNAGDIMDLWGPGTLVTVSL VL: AQVLTQTPSSVSAAVGGTVTINCQSSHTVYSNNYLSWYQQKPGQPPKLLIYSASSLASGVPSRFKGSGSGTQFTLTISDLECDDAAIYYCHGYWRGPVNDFGGGTEVVVEG )
Ans: 8.91

Q: # get_value(readout='pKd', item= rabbit monoclonal antibody 11B12 against the SARS-CoV-2 nucleocapsid protein (antibody, V domains shown) VH: QQQLEESGGGLVKPGGTLTLTCTVSGLSLSSNTLNWVRQAPGKGLEWIGTIFIDDEDTYYASWAKGRFTISKTSSTTITLKMTSLTAADTATYFCARSSDLWDPGTLVVVSS VL: AQVLTQTPSSVSAAVGGTVTINCQASQSVYKNNYLSWFQQKPGQPPKLLIYQASKLASGVSSRFKGSGSGTQFTLTISDVQCDDAATYFCLGSYDCRSANCIVFGGGTEVVVKG )
Ans: 10.25

Q: # get_value(readout='pKd', item= rabbit monoclonal antibody 6H7 against the SARS-CoV-2 nucleocapsid protein (antibody, V domains shown) VH: QQQLEESGGGLVQPGGSLTLSCKASGFNVNSDCYMCWVRQAPGKGLEWIGCIDTVSGSTYYATWAKGRFTISKTSSTTVTLQMTSLTAADTATYFCARDFLYNVNNAGDIMDLWGPGTLVTVSL VL: AQVLTQTPSSVSAAVGGTVTINCQSSYNVYNNNYLAWYQQKPGQPPKLLIYTTSTLASGVPSRFSGSGSGTQFTLTISDLECDDAAIYYCQGYYRGPVNDFGGGTEVVVEG )
Ans: 9.17
